target: T1, ECF37_2513
T1 chain: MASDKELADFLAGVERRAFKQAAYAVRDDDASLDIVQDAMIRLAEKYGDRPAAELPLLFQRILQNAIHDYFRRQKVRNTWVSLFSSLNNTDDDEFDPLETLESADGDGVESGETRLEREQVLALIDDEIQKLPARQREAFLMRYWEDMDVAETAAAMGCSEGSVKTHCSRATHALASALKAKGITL
measure: fold repression
Output spec: single numeric token, no unit.

Query AS14_1324 (protein) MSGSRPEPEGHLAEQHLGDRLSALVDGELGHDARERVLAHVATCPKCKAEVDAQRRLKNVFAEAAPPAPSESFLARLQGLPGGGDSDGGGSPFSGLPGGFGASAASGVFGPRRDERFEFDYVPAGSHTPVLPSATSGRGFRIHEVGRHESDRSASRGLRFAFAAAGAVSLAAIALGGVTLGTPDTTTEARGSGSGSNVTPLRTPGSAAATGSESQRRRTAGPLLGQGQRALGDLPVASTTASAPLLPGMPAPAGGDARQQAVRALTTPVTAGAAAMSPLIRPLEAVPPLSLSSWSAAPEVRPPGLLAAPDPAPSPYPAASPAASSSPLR yields fold repression of 3.89

Query AS16_3622 (protein) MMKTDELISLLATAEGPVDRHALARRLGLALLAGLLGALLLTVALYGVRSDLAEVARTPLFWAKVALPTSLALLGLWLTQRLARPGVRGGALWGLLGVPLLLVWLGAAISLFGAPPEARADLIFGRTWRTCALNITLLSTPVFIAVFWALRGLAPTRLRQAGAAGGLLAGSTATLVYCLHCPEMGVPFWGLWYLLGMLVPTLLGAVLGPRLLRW yields fold repression of 4.97
